Please go through the items and note down their IC50.
Target: EGFR kinase (Homo sapiens)
Sequence (P00533 25-1210): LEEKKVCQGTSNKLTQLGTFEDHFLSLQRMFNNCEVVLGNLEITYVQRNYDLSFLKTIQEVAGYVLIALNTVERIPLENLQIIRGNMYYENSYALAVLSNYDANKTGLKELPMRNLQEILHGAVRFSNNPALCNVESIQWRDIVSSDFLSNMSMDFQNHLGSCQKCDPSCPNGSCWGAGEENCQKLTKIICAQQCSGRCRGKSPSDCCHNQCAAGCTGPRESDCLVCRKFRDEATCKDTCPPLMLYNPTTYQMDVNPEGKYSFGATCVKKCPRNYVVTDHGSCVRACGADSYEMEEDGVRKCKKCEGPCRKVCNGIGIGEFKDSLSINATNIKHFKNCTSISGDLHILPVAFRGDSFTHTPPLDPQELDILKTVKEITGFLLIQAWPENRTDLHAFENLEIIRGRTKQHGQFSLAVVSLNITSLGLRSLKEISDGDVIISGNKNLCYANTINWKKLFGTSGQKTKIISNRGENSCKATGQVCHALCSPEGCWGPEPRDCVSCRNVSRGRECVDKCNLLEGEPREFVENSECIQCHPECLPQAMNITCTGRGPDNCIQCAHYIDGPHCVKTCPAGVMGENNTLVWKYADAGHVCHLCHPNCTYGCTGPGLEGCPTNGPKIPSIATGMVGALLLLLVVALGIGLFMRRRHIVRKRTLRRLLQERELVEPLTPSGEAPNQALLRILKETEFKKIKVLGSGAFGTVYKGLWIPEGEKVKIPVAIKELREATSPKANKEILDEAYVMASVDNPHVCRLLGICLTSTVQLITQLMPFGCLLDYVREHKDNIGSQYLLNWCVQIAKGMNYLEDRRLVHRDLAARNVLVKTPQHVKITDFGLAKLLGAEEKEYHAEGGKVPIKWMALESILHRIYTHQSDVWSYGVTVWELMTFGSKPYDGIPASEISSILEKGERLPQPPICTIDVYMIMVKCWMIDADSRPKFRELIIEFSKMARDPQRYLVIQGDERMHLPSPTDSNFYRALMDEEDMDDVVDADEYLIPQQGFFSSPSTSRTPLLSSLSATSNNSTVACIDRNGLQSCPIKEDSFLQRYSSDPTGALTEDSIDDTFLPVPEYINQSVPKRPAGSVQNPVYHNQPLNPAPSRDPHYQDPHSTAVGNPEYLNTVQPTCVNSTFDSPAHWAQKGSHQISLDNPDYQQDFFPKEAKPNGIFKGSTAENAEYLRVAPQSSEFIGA
Experiment: Enzymatic experiment on EGFR (HTRF kinEASE-TK)
Assay type: biochemical
Conditions: ATP 1.65 μM; read-out: Kinase IC50 (nM) in vitro EGFR
Write the number in nM without appending the unit.

The recorded IC50 for entry Cc1cc(Nc2ncnc3ccc(NC(=O)CC(C)(C)O)cc23)ccc1Oc1cc2nncn2cn1 [Embodiment 17] equals 80.9

Field IC50 (entry Cc1cc(Nc2ncnc3ccc(/C=C/C(=O)NOCCO)cc23)ccc1Oc1cc2nncn2cn1 ) reads 82.7

IC50 reported for this compound C=C(F)C(=O)Nc1cccc(-c2ccc3ncnc(Nc4ccc(Oc5cc6nncn6cn5)c(C)c4)c3c2)c1 [Embodiment 71] : 20.7

# compound Cc1cc(Nc2ncnc3ccc(NC4=NC(C)(CO)CO4)cc23)ccc1Oc1cc2nncn2cn1 (stereo not drawn) [Embodiment 13] ; its IC50 = 15.2

IC50 recorded for this compound, Cc1cc(Nc2ncnc3ccc(NC4=N[C@@H](C)CO4)cc23)ccc1Oc1cc2nncn2cn1 [Embodiment 8] , is 115

Entry under test: Cc1cc(Nc2ncnc3ccc(NC(=O)/C=C/CN(C)C)cc23)ccc1Oc1cc2nncn2cn1 [Embodiment 57] . Its IC50 was 2.7

Entry under test: CNC(=O)CN1CCC(Oc2cc3c(Nc4ccc(Oc5cc6nncn6cn5)c(C)c4)ncnc3cc2OC)CC1 [Embodiment 32] . Its IC50 was 2

The compound listed as C=CC(=O)N1CCC(Oc2cc3c(Nc4ccc(Oc5cc6nncn6cn5)c(Cl)c4)ncnc3cc2OC)CC1 [Embodiment 92] has a reported IC50 of 0.7

Query Cc1cc(Nc2ncnc3ccc(-c4cccc(N5CCS(=O)(=O)CC5)c4)cc23)ccc1Oc1cc2nncn2cn1 [Embodiment 116] yields IC50 of 11.7

Per the records, this compound ( Cc1cc(Nc2ncnc3ccc(-c4ccc(CNCCS(C)(=O)=O)o4)cc23)ccc1Oc1cc2nncn2cn1 [Embodiment 15] ) has IC50 equal to 14.9

The reported IC50 of the compound Cc1cc(Nc2ncnc3ccc(NC(=O)/C=C/[C@@H]4CCCN4)cc23)ccc1Oc1cc2nncn2cn1 [Embodiment 96] was 3.79

Form field IC50, entry Cc1cc(Nc2ncnc3ccc(NC(=O)N4CCOCC4)cc23)ccc1Oc1cc2nncn2cn1 [Embodiment 6] : 1890

Per the records, this compound ( Cc1coc(NC(=O)Nc2ccc3ncnc(Nc4ccc(Oc5cc6nncn6cn5)c(C)c4)c3c2)n1 [Embodiment 74] ) has IC50 equal to 43.3

Field IC50 (entry Cc1cc(Nc2ncnc3ccc(NC(=S)NC(C)(CO)CO)cc23)ccc1Oc1cc2nncn2cn1 [Embodiment 12] ) reads 231

Entry under test: Cc1cc(Nc2ncnc3ccc(NC4=NC5(CCOCC5)CO4)cc23)ccc1Oc1cc2nncn2cn1 [Embodiment 47] . Its IC50 was 31.4

###

Target: ErbB2 kinase (Homo sapiens, UniProt P04626)
Sequence (P04626 23-1255): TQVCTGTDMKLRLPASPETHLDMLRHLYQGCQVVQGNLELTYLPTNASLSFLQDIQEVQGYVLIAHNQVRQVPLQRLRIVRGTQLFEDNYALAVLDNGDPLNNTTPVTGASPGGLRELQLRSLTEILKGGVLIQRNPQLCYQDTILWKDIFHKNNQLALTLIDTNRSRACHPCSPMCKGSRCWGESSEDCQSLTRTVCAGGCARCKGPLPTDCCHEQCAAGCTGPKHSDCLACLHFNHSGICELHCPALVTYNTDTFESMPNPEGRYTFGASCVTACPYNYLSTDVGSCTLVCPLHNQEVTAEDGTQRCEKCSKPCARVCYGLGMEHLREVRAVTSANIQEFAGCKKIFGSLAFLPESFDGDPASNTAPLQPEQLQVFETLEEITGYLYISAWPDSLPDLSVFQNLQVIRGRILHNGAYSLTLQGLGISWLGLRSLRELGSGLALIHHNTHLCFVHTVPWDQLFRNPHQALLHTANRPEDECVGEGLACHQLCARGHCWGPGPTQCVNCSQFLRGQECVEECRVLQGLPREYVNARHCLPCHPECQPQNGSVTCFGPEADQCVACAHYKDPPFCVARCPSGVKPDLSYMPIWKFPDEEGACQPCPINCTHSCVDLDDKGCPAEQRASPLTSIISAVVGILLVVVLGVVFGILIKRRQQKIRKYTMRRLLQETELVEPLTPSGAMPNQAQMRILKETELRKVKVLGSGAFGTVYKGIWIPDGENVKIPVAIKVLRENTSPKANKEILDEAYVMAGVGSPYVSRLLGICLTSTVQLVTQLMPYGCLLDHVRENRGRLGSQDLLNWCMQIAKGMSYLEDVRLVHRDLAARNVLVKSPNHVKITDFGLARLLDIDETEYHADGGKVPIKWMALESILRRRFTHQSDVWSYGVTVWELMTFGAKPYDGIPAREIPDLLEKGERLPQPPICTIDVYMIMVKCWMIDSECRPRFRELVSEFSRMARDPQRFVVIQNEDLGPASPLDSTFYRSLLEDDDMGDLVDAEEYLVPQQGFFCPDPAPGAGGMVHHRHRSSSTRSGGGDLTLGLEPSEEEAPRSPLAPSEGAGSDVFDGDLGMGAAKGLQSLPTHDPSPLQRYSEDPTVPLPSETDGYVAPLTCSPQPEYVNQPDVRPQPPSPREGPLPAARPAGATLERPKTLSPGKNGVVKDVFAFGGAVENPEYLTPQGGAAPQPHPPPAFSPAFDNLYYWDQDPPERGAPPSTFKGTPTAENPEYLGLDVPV
Experiment: Enzymatic experiment on ErbB2 (HTRF kinEASE-TK)
Format: biochemical
Details: ATP 4 μM; read-out: Kinase IC50 (nM) in vitro ErbB2
RECORDED ENDPOINT: IC50 (nM)
# number only, unit nM dropped from output

The molecule listed as CC1(C)COC(Nc2ccc3ncnc(Nc4ccc(Oc5cc6nncn6cn5)c(CO)c4)c3c2)=N1 has a reported IC50 of 8.5

Sure, the documented IC50 for C=CC(=O)N1CC2(COC(Nc3ccc4ncnc(Nc5ccc(Oc6cc7nncn7cn6)c(C)c5)c4c3)=N2)C1 is 3.6

Measured IC50, Cc1cc(Nc2ncnc3ccc(NC4=NC(C)(C)CO4)cc23)ccc1Oc1cc2nccn2cn1 : 1.1

Documented IC50 of Cc1cc(Nc2ncnc3ccc(NC(=O)c4cnoc4C)cc23)ccc1Oc1cc2nncn2cn1 : 1.8

###

Hi there, I'd appreciate the recorded IC50 for every entry that follows.
Target: CYP2C9 (Homo sapiens, UniProt P11712)
Sequence (P11712 whole entry): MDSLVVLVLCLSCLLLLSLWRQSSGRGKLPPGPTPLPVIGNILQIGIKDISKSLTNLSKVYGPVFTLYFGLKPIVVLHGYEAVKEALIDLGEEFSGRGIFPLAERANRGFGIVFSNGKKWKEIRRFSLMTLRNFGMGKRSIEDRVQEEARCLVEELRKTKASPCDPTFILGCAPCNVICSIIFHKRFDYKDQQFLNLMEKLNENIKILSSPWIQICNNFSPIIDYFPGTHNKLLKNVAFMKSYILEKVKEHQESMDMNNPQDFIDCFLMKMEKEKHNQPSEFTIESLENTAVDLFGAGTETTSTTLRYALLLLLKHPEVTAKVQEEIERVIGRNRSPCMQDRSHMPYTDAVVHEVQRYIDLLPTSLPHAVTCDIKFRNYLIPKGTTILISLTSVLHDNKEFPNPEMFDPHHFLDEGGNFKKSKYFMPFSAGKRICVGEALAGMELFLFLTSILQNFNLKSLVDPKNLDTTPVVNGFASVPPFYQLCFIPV
Please reply with the bare figure in µM and do not write the unit itself.

The value of IC50 recorded for Cc1cc(Nc2ncnc3ccc(NC4=NC(C)(C)CO4)cc23)ccc1Oc1cc2nncn2cn1 when tested on CYP2C9 (Homo sapiens, UniProt P11712) reads 53

The compound Cc1cc(Nc2ncnc3ccc(NC4=NC(C)(C)CO4)cc23)ccc1Oc1ccn2ncnc2c1 [ARRY-380, reference compound] on CYP2C9 (Homo sapiens, UniProt P11712): IC50 was 13

###

Give IC50 for every item shown.
Target: UniProtKB P00533
Experiment: Enzymatic experiment on EGFR (HTRF kinEASE-TK)
Type: biochemical
Settings: ATP 1.65 μM; read-out: Kinase IC50 (nM) in vitro EGFR
Use nM as the unit, but write only the number.

Entry under test: Cc1cc(Nc2ncnc3ccc(-c4cccc(F)c4)cc23)ccc1Oc1cc2nncn2cn1 . Its IC50 was 23.6

Entry C=CC(=O)N1CC2(COC(Nc3ccc4ncnc(Nc5ccc(Oc6cc7nncn7cn6)c(C)c5)c4c3)=N2)C1 ; IC50 = 41.8

Cc1cc(Nc2ncnc3ccc(-c4ccc(CNCCNS(C)(=O)=O)o4)cc23)ccc1Oc1cc2nncn2cn1 has a reported IC50 of 1.9

The compound listed as C=C(F)C(=O)Nc1ccc2ncnc(Nc3ccc(Oc4cc5nncn5cn4)c(C)c3)c2c1 has a reported IC50 of 32.3

###

Target: CYP3A4 (Homo sapiens)
Construct: from tissue; host or cells: human liver microsomes
Sequence (P08684 whole entry): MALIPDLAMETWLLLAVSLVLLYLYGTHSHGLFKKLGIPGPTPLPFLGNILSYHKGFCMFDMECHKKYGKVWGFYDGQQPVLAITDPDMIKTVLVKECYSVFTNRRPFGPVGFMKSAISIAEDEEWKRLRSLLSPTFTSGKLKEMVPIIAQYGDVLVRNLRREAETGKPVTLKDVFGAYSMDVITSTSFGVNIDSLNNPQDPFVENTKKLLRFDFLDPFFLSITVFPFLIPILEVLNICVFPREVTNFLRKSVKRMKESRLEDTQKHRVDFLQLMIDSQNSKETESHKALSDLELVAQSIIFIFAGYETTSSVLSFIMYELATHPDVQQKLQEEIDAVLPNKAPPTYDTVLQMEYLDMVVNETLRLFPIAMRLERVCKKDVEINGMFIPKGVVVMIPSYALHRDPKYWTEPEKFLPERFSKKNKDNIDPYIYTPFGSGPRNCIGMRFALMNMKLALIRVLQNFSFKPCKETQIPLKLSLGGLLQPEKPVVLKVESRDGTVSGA
Experiment: Direct inhibition of CYP3A4, human liver microsome
Type: in vitro ADME
Details: probe midazolam, read-out: IC50 3A4 (Midazolam)
Experimental: Research on Direct Inhibition of CYP3A4, CYP2D6, CYP2C9, CYP2C19, CYP1A2 […] In this experiment, IC50 of inhibition of the compound on the enzyme was calculated by measuring relative production of the probe metabolite. […]
RECORDED ENDPOINT: pIC50
Interpret pIC50 as the negative base-10 log of the concentration measured in mol/L.

Summary for this molecule, Cc1cc(Nc2ncnc3ccc(NC4=NC(C)(C)CO4)cc23)ccc1Oc1ccn2ncnc2c1 [ARRY-380, reference compound] : pIC50 is 4.96

The molecule Cc1cc(Nc2ncnc3ccc(NC4=NC(C)(C)CO4)cc23)ccc1Oc1cc2nncn2cn1 showed pIC50 equal to 4.60

###

Assign IC50 to each entry below.
Target: ErbB2 kinase (Homo sapiens, UniProt P04626)
Experiment: Enzymatic experiment on ErbB2 (HTRF kinEASE-TK)
Type: biochemical
Conditions: ATP 4 μM; read-out: Kinase IC50 (nM) in vitro ErbB2
A complete answer gives the number followed by the unit.

// COc1cc2ncnc(Nc3ccc(Oc4cc5nncn5cn4)c(C)c3)c2cc1OC1CCN(C(=O)/C=C/CN(C)C)CC1 [Embodiment 23] : IC50 value = 5.2 nM

Record CCNC(=O)NC/C=C/c1ccc2ncnc(Nc3ccc(Oc4cc5nncn5cn4)c(C)c3)c2c1 [Embodiment 49] . Reported IC50: 1.85 nM

// field: IC50; key: Cc1coc(NC(=O)Nc2ccc3ncnc(Nc4ccc(Oc5cc6nncn6cn5)c(C)c4)c3c2)n1 [Embodiment 74] ; value = 2.4 nM

Per the records, this compound ( C=CC(=O)Nc1cncc(-c2ccc3ncnc(Nc4ccc(Oc5cc6nncn6cn5)c(C)c4)c3c2)c1 [Embodiment 52] ) has IC50 equal to 2.35 nM

// sample C=CC(=O)N1CC=C(c2ccc3ncnc(Nc4ccc(Oc5cc6nncn6cn5)c(C)c4)c3c2)CC1 [Embodiment 117] , its IC50 was 3.6 nM

Just so you know, measured IC50 for Cc1cc(Nc2ncnc3ccc(NC(=O)/C=C/[C@@H]4CCCN4)cc23)ccc1Oc1cc2nncn2cn1 [Embodiment 96] came out at 3.43 nM

Recorded result, CC1(C)COC(Nc2ccc3ncnc(Nc4ccc(Oc5cc6nncn6cn5)c(C(F)(F)F)c4)c3c2)=N1 [Embodiment 81] , IC50: 16.6 nM

Reported IC50 of Cc1cc(Nc2ncnc3ccc(NC4=NC5(CO4)CC(O)C5)cc23)ccc1Oc1cc2nncn2cn1 (stereo not drawn) [Embodiment 27] : 1.92 nM

Documented IC50 of C=C(F)C(=O)Nc1cc2c(Nc3ccc(Oc4cc5nncn5cn4)c(C)c3)ncnc2cc1OCC [Embodiment 127] : 5.6 nM

Short answer for Cc1cc(Nc2ncnc3ccc(NC(=O)/C(C#N)=C/C4CC4)cc23)ccc1Oc1cc2nncn2cn1 [Embodiment 85] : IC50 was 2.2 nM

# compound Cc1cc(Nc2ncnc3ccc(-c4cc(CN5CCS(=O)(=O)CC5)co4)cc23)ccc1Oc1cc2nncn2cn1 [Embodiment 64] ; its IC50 = 1.6 nM

Entry CN1CCC[C@@H]1/C=C/C(=O)Nc1ccc2ncnc(Nc3ccc(Oc4cc5nncn5cn4)c(Cl)c3)c2c1 [Embodiment 98] , IC50 reported as 1.78 nM

Sample Cc1cc(Nc2ncnc3ccc(NC4=N[C@H](C(C)C)CO4)cc23)ccc1Oc1cc2nncn2cn1 [Embodiment 45] ; IC50 observed: 2.8 nM

// sample Cc1cc(Nc2ncnc3ccc(-c4cc(CNCCS(C)(=O)=O)co4)cc23)ccc1Oc1cc2nncn2cn1 [Embodiment 62] , its IC50 was 1.5 nM

What the record says about Cc1cc(Nc2ncnc3ccc(NC4=NC(C)(C)CO4)cc23)ccc1Oc1ncn2cnnc2c1O [Embodiment 102] : IC50 is 4.5 nM
